test: oral toxicity LD50 per os, mice; conditions: mouse, in vivo
Property Name: LD50 (mg/kg)
// return numeric value only (unit: mg/kg, not printed)

Problem: Quick one: LD50 of Clc1ccc(SCCCOC(Cn2ccnc2)c2ccc(Cl)cc2Cl)cc1.O=[N+]([O-])O (centres unmarked) ?
Result: 4300

---

assay: in vivo; settings: mouse, po
Property Name: LD50

Solved entries (count: 10):
Compound: COc1ccccc1OCOC(Cn1ccnc1)c1ccc(Cl)cc1Cl (stereo not shown) [Example 24]
LD50: ~1350 mg/kg

Compound: CSc1ccc(OCOC(Cn2ccnc2)c2ccc(Cl)cc2Cl)cc1 (stereo not shown) [Example 8]
LD50: ~2100 mg/kg

Compound: Clc1ccc(C(Cn2ccnc2)OCOc2ccccc2)c(Cl)c1 (stereo not shown) [Example 2]
LD50: > 3000 mg/kg

Compound: CSCOC(Cn1ccnc1)c1ccc(Cl)cc1Cl (stereo not shown) [Example 10]
LD50: ~950 mg/kg

Compound: Clc1ccc(CSCOC(Cn2ccnc2)c2ccc(Cl)cc2Cl)cc1 (stereo not shown) [Example 23]
LD50: > 2000 mg/kg

Compound: Clc1ccc(C(Cn2ccnc2)OCSc2ccccc2)c(Cl)c1 (stereo not shown) [Example 11]
LD50: > 3000 mg/kg

Compound: Clc1ccc(SCCSC(Cn2ccnc2)c2ccc(Cl)cc2Cl)nc1 (stereo not shown) [Example 29]
LD50: > 2000 mg/kg

Compound: Clc1ccc(C(Cn2ccnc2)OCSc2ccc(Cl)c(Cl)c2)c(Cl)c1 (stereo not shown) [Example 15]
LD50: ~7500 mg/kg

Compound: COCOC(Cn1ccnc1)c1ccc(Cl)cc1Cl (stereo not shown) [Example 1]
LD50: 540 mg/kg

Compound: Cc1cc(SCOC(Cn2ccnc2)c2ccc(Cl)cc2Cl)ccc1Br (stereo not shown) [Example 16]
LD50: > 3000 mg/kg

Problem: # get_value(readout='LD50', item= Clc1ccc(SCOC(Cn2ccnc2)c2ccc(Cl)cc2Cl)cc1 (stereo not shown) [Example 13] )
Result: 3850 mg/kg

Problem: Lookup Clc1ccc(SCOC(Cn2ccnc2)c2ccc(Cl)cc2Cl)nc1 (stereo not shown) [Example 26]
Result: ~2700 mg/kg

Problem: Try this compound next: Cc1ccc(SCOC(Cn2ccnc2)c2ccc(Cl)cc2Cl)cc1 (stereo not shown) [Example 14]
Result: > 3000 mg/kg

Problem: Please answer likewise for CC(C(OCSc1ccc(Cl)cc1)c1ccc(Cl)cc1Cl)n1ccnc1 (stereo not shown) [Example 25]
Result: > 10000 mg/kg

Problem: Similarly, Clc1ccc(OCOC(Cn2ccnc2)c2ccc(Cl)cc2Cl)c(Cl)c1 (stereo not shown) [Example 5] ?
Result: > 3000 mg/kg

Problem: // next record Clc1ccc(SCCCCOC(Cn2ccnc2)c2ccc(Cl)cc2Cl)cc1 (stereo not shown) [Example 36]
Result: > 3000 mg/kg

Problem: // repeat for OCCSC(Cn1ccnc1)c1ccc(Cl)cc1Cl (stereo not shown) [Example 18] and report
Result: 1300 mg/kg

Problem: Moving on to the next compound: Cc1ccc(OCOC(Cn2ccnc2)c2ccc(Cl)cc2Cl)cc1 (stereo not shown) [Example 6]
Result: > 3000 mg/kg

Problem: Now try Clc1ccc(SCCCSC(Cn2ccnc2)c2ccc(Cl)cc2Cl)cc1 (stereo not shown) [Example 34] .
Result: > 3000 mg/kg

Problem: Note, next up: Clc1ccc(C(Cn2ccnc2)OCSc2ccc(Br)cc2)c(Cl)c1 (stereo not shown) [Example 12]
Result: 12500 mg/kg

Problem: Also need Clc1ccc(C(Cn2ccnc2)OCOc2ccccc2Cl)c(Cl)c1 (stereo not shown) [Example 3] , thanks.
Result: > 3000 mg/kg

Problem: # repeat for Clc1ccc(C(Cn2ccnc2)SCCCOc2ccccc2)c(Cl)c1 (stereo not shown) [Example 32]
Result: > 2000 mg/kg
